Recorded values, source PubChem BioAssay (EPA / NIEHS).

- tested-system: human Peroxisome Proliferator-activated Receptor alpha (PPARa), PPARA (gene 5465)
- assay-method-text: ATG_PPARa_TRANS: Attagene TRANS-FACTORIAL HepG2 Assay for human Peroxisome Proliferator-activated Receptor alpha (PPARa) (AID 2283001)
Inconclusive results are not listed. The source made the active and inactive calls. Rule for the calls: active = hit-call score of the fitted dose curve at least 0.9, where 1 is the maximum; inconclusive = response in the unintended direction; inactive = score below 0.9.
Please answer using one outcome listed in true = active, false = inactive

Solved cases below.
[
  {
    "structure-string": "CCc1ccc2c(c1)C(=O)c1ccccc1C2=O",
    "group": "false"
  },
  {
    "structure-string": "O=C1CCCCCCCCCCCCCCCO1",
    "group": "true"
  },
  {
    "structure-string": "CCOC(=O)c1ccc(N(C)C)cc1",
    "group": "false"
  },
  {
    "structure-string": "OCCN(CCO)c1ccccc1",
    "group": "false"
  },
  {
    "structure-string": "FC(F)(F)C(=NOCC1OCCO1)c1ccc(Cl)cc1",
    "group": "false"
  }
]

Query block: Hi team, can someone confirm the assay call for `CC(=O)CC(N)=O` ?
Result block: false

Query block: Hi team, can someone confirm the assay call for `O=C1CCCCCN1SSN1CCCCCC1=O` ?
Result block: false

Query block: Hi team, can someone confirm the assay call for `CN(C)c1ccc(N=Nc2ccccc2C(=O)O)cc1` ?
Result block: true

Query block: Hi team, can someone confirm the assay call for `COc1ccc([C@@H]2CC(=O)c3c(O)cc(O[C@@H]4O[C@H](CO[C@@H]5O[C@@H](C)[C@H](O)[C@@H](O)[C@H]5O)[C@@H](O)[C@H](O)[C@H]4O)cc3O2)cc1OC` ?
Result block: false

Query block: Hi team, can someone confirm the assay call for `O=c1cc(-c2ccccc2)oc2ccccc12` ?
Result block: false

Query block: Hi team, can someone confirm the assay call for `O=C(Nc1ccccc1SSc1ccccc1NC(=O)c1ccccc1)c1ccccc1` ?
Result block: true

Query block: Hi team, can someone confirm the assay call for `CCOC(=O)CC(C(C)=O)C(C)=O` ?
Result block: false
